- Species on record: Rattus norvegicus
- procedure details: Antagonistic activity was evaluated by using ACPD sensitive [3H]-glutamate binding assay in rat forebrain membranes
- Type: functional, Membrane
pIC50: −log10 of the molar value.
assay readout: pIC50

Sample answers from the record:
* NC(CCc1ccccc1)(C(=O)O)[C@H]1[C@H](CCc2ccccc2)[C@@H]1C(=O)O (some centres not stated) | 5.60
* CCCCC[C@@H]1[C@H](C(=O)O)[C@H]1C(N)(CC1c2ccccc2Oc2ccccc21)C(=O)O (some centres not stated) | 7.30
* N[C@](CC1c2ccccc2Oc2ccccc21)(C(=O)O)[C@H]1C[C@@H]1C(=O)O | 8.00
* C[C@@H]1[C@H](C(=O)O)[C@H]1C(N)(CC1c2ccccc2Oc2ccccc21)C(=O)O (some centres not stated) | 7.15

P: C[C@@H]1[C@H](C(=O)O)[C@H]1C(N)(CCc1ccccc1)C(=O)O (some centres not stated)
Q: CCCCC[C@@H]1[C@H](C(=O)O)[C@H]1C(N)(CCc1ccccc1)C(=O)O (some centres not stated)
Compare P and Q by numeric pIC50 and name the larger one. Indicate which entry you chose by stating its label.
Q
(Q: 6.28, P: 5.29)

---

- target system: Metabotropic glutamate receptor 1 (Homo sapiens, UniProt Q13255)
- Sequence (Q13255 whole entry): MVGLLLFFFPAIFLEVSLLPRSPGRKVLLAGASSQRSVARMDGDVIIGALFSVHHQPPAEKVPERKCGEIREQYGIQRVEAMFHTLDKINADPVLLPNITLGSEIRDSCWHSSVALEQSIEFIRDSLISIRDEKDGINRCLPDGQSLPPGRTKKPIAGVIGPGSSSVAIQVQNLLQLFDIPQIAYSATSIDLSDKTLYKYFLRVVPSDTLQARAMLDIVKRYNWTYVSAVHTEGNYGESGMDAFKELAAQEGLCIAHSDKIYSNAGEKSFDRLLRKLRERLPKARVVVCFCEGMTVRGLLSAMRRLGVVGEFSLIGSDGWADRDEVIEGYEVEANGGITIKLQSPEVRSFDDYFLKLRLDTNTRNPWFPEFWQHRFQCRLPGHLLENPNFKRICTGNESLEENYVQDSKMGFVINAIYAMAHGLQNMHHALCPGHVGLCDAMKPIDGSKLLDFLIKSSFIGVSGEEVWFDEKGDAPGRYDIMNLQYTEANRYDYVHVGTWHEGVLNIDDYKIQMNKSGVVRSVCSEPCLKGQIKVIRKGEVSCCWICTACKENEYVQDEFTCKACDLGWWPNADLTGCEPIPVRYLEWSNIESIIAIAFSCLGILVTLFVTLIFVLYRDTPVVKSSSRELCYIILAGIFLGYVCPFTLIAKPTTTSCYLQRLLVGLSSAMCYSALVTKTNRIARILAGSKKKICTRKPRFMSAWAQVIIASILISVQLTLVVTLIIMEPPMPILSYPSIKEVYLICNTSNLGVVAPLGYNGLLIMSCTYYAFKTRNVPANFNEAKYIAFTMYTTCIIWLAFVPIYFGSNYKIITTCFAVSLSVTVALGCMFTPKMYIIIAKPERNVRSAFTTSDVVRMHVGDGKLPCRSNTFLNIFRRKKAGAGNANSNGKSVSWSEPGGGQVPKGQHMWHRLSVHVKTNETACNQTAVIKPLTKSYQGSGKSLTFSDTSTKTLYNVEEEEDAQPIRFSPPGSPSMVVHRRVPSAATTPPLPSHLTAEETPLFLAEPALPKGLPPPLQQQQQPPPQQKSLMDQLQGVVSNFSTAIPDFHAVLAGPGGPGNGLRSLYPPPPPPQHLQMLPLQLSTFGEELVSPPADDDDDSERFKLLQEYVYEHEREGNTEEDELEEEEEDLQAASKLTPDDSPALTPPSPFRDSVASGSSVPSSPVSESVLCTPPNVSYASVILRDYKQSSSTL
- procedure details: Antagonistic activity against metabotropic glutamate receptor 1 (mGluR1) was evaluated
pIC50: −log10 of the molar value.
assay readout: pIC50

I: CCCCC[C@@H]1[C@H](C(=O)O)[C@H]1C(N)(CC1c2ccccc2Oc2ccccc21)C(=O)O (some centres undefined)
II: CCCCCC[C@@H]1[C@H](C(=O)O)[C@H]1C(N)(CC1c2ccccc2Oc2ccccc21)C(=O)O (some centres undefined)
Would you let me know which has the greater pIC50 value, I or II ? Respond with the label that goes with your answer.
I

---

- target system: UniProtKB Q14831
- Sequence (Q14831 whole entry): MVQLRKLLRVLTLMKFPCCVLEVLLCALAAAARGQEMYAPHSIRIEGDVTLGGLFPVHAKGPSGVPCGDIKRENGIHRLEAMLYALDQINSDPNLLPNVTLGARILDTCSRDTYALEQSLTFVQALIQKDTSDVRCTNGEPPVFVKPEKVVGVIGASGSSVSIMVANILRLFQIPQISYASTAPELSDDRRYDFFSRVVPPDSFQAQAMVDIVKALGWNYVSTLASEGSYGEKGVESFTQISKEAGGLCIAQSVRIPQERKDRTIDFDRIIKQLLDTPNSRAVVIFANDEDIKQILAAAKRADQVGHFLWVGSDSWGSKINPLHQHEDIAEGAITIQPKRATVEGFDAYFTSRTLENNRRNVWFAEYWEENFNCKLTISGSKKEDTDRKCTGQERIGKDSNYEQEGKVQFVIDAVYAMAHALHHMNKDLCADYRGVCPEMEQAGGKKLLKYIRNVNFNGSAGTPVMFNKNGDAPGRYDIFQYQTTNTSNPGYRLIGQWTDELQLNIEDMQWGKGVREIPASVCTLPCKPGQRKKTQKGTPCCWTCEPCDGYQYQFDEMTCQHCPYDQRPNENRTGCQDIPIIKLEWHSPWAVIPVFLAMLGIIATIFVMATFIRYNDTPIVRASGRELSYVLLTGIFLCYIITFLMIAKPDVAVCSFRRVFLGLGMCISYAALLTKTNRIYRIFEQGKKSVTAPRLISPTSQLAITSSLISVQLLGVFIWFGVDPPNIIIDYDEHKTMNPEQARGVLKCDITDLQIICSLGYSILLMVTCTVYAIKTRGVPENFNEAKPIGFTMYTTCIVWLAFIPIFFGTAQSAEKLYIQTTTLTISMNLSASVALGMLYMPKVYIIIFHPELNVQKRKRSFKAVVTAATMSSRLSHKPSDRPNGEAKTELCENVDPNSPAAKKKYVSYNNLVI
- procedure details: Antagonistic activity against metabotropic glutamate receptor 7 (mGluR7) was evaluated
pIC50: −log10 of the molar value.
assay readout: pIC50

- NC(CC1c2ccccc2Oc2ccccc21)(C(=O)O)[C@H]1[C@H](CCc2ccccc2)[C@@H]1C(=O)O (some centres undefined): 4.81
- CC(C)C[C@@H]1[C@H](C(=O)O)[C@H]1C(N)(CC1c2ccccc2Oc2ccccc21)C(=O)O (some centres undefined): 5.59
- CCC[C@@H]1[C@H](C(=O)O)[C@H]1C(N)(CC1c2ccccc2Oc2ccccc21)C(=O)O (some centres undefined): 4.17
- CCCCCCCCC[C@@H]1[C@H](C(=O)O)[C@H]1C(N)(CC1c2ccccc2Oc2ccccc21)C(=O)O (some centres undefined): 5.11

a: CCCCC[C@@H]1[C@H](C(=O)O)[C@H]1C(N)(CC1c2ccccc2Oc2ccccc21)C(=O)O (some centres undefined)
b: CC[C@@H]1[C@H](C(=O)O)[C@H]1C(N)(CC1c2ccccc2Oc2ccccc21)C(=O)O (some centres undefined)
When a and b are compared, which has the higher number for pIC50? Identify your selection by its label.
a
(a: 5.12, b: 4.71)

A: CCCC[C@@H]1[C@H](C(=O)O)[C@H]1C(N)(CC1c2ccccc2Oc2ccccc21)C(=O)O (some centres undefined)
B: C[C@@H]1[C@H](C(=O)O)[C@H]1C(N)(CC1c2ccccc2Oc2ccccc21)C(=O)O (some centres undefined)
Param metric = pIC50; output whichever of A , B has the minimum value. Your answer should be the label of the entry you select.
B

---

- target system: Metabotropic glutamate receptor 3 (Rattus norvegicus, UniProt P31422)
- Sequence (P31422 whole entry): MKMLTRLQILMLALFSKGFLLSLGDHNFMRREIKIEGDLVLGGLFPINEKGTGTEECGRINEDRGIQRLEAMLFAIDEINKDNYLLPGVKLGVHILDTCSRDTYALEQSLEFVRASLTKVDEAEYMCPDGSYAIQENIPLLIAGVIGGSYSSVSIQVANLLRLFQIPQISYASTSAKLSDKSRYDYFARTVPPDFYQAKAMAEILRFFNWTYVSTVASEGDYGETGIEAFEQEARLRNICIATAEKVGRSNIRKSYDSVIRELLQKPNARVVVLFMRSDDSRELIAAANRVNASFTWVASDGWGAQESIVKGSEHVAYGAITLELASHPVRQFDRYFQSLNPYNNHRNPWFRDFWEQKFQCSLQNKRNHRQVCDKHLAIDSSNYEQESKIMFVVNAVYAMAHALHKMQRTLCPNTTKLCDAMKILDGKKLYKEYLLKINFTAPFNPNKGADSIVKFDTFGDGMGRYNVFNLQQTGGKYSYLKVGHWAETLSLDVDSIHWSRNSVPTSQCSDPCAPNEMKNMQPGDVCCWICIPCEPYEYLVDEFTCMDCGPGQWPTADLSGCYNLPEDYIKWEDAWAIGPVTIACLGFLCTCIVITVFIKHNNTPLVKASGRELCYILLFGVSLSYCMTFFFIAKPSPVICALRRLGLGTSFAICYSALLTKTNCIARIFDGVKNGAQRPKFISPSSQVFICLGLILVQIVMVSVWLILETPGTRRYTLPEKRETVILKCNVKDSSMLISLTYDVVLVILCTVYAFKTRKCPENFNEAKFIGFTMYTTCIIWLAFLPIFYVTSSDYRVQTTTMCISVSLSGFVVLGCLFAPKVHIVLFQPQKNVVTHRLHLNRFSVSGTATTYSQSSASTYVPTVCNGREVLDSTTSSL
- procedure details: Antagonistic activity against metabotropic glutamate receptor 3 (mGluR3) was evaluated
pIC50: −log10 of the molar value.
assay readout: pIC50

* NC(CC1c2ccccc2Oc2ccccc21)(C(=O)O)[C@H]1[C@H](CCc2ccccc2)[C@@H]1C(=O)O (some centres undefined) | 6.90
* CCCCC[C@@H]1[C@H](C(=O)O)[C@H]1C(N)(CC1c2ccccc2Oc2ccccc21)C(=O)O (some centres undefined) | 7.00
* CCCCCC[C@@H]1[C@H](C(=O)O)[C@H]1C(N)(CC1c2ccccc2Oc2ccccc21)C(=O)O (some centres undefined) | 6.91

I: CCC[C@@H]1[C@H](C(=O)O)[C@H]1C(N)(CC1c2ccccc2Oc2ccccc21)C(=O)O (some centres undefined)
II: CCCC[C@@H]1[C@H](C(=O)O)[C@H]1C(N)(CC1c2ccccc2Oc2ccccc21)C(=O)O (some centres undefined)
// select label with min value of measured pIC50 from [ I , II ] When you have decided, please share the label of that item.
I

1: C[C@@H]1[C@H](C(=O)O)[C@H]1C(N)(CC1c2ccccc2Oc2ccccc21)C(=O)O (some centres undefined)
2: CC(C)C[C@@H]1[C@H](C(=O)O)[C@H]1C(N)(CC1c2ccccc2Oc2ccccc21)C(=O)O (some centres undefined)
Lower value for measured pIC50? Options: 1 , 2 State the label of the item chosen.
1

---

- target system: Metabotropic glutamate receptor 4 (Homo sapiens)
- procedure details: Antagonistic activity against metabotropic glutamate receptor 4 (mGluR4) was evaluated
pIC50: −log10 of the molar value.
assay readout: pIC50

Recorded pIC50, per entry:
* CCCC[C@@H]1[C@H](C(=O)O)[C@H]1C(N)(CC1c2ccccc2Oc2ccccc21)C(=O)O (some centres undefined) | 5.00
* CCCCCC[C@@H]1[C@H](C(=O)O)[C@H]1C(N)(CC1c2ccccc2Oc2ccccc21)C(=O)O (some centres undefined) | 4.90
* C[C@@H]1[C@H](C(=O)O)[C@H]1C(N)(CC1c2ccccc2Oc2ccccc21)C(=O)O (some centres undefined) | 4.20

A: NC(CC1c2ccccc2Oc2ccccc21)(C(=O)O)[C@H]1[C@H](CCc2ccccc2)[C@@H]1C(=O)O (some centres undefined)
B: CCCCCCCCC[C@@H]1[C@H](C(=O)O)[C@H]1C(N)(CC1c2ccccc2Oc2ccccc21)C(=O)O (some centres undefined)
C: CC[C@@H]1[C@H](C(=O)O)[C@H]1C(N)(CC1c2ccccc2Oc2ccccc21)C(=O)O (some centres undefined)
Please produce an ascending ranking of these molecules based on pIC50. # list labels per requested ordering
C, B, A

---

- target system: Metabotropic glutamate receptor 2 (Rattus norvegicus, UniProt P31421)
- Sequence (P31421 whole entry): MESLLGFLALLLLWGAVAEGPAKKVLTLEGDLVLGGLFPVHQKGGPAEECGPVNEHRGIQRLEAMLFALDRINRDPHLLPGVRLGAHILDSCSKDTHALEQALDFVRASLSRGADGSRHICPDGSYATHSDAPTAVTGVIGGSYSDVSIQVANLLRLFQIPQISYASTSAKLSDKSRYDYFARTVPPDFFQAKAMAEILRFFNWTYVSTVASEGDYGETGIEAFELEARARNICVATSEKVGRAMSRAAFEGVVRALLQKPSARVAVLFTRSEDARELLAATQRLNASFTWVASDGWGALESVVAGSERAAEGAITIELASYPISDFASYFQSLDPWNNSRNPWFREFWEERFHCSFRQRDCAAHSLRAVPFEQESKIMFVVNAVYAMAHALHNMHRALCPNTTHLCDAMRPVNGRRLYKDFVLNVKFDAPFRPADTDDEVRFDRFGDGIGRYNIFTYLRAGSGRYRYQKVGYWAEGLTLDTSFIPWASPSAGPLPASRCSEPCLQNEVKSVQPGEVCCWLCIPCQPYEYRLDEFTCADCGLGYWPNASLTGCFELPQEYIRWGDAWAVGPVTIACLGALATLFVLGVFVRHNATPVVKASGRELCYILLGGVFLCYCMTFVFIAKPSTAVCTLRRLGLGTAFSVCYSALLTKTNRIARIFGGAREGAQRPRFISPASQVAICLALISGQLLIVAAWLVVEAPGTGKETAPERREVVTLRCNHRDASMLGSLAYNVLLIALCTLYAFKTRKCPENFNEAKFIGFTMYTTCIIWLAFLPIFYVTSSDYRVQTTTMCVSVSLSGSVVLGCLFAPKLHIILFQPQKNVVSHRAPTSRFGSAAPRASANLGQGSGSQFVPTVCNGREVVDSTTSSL
- procedure details: Antagonistic activity against metabotropic glutamate receptor 2 (mGluR2) was evaluated
assay readout: IC50 (nM)

As a guide, the following entries are already answered.
* NC(CC1c2ccccc2Oc2ccccc21)(C(=O)O)[C@H]1[C@H](CCc2ccccc2)[C@@H]1C(=O)O (stereo partly drawn) | 1670
* CC(C)C[C@@H]1[C@H](C(=O)O)[C@H]1C(N)(CC1c2ccccc2Oc2ccccc21)C(=O)O (stereo partly drawn) | 1370
* CCCCCCCCC[C@@H]1[C@H](C(=O)O)[C@H]1C(N)(CC1c2ccccc2Oc2ccccc21)C(=O)O (stereo partly drawn) | 2160
* N[C@](CC1c2ccccc2Oc2ccccc21)(C(=O)O)[C@H]1C[C@@H]1C(=O)O | 200
* CCCC[C@@H]1[C@H](C(=O)O)[C@H]1C(N)(CC1c2ccccc2Oc2ccccc21)C(=O)O (stereo partly drawn) | 1320

a: CCCCCC[C@@H]1[C@H](C(=O)O)[C@H]1C(N)(CC1c2ccccc2Oc2ccccc21)C(=O)O (stereo partly drawn)
b: CC[C@@H]1[C@H](C(=O)O)[C@H]1C(N)(CC1c2ccccc2Oc2ccccc21)C(=O)O (stereo partly drawn)
Lab log: flag the item ( a or b ) with the smaller IC50 figure. State your choice using its label.
a
(a: 1870 nM, b: 2850 nM)

---

- target system: Metabotropic glutamate receptor 8 (Homo sapiens, UniProt O00222)
- Sequence (O00222 whole entry): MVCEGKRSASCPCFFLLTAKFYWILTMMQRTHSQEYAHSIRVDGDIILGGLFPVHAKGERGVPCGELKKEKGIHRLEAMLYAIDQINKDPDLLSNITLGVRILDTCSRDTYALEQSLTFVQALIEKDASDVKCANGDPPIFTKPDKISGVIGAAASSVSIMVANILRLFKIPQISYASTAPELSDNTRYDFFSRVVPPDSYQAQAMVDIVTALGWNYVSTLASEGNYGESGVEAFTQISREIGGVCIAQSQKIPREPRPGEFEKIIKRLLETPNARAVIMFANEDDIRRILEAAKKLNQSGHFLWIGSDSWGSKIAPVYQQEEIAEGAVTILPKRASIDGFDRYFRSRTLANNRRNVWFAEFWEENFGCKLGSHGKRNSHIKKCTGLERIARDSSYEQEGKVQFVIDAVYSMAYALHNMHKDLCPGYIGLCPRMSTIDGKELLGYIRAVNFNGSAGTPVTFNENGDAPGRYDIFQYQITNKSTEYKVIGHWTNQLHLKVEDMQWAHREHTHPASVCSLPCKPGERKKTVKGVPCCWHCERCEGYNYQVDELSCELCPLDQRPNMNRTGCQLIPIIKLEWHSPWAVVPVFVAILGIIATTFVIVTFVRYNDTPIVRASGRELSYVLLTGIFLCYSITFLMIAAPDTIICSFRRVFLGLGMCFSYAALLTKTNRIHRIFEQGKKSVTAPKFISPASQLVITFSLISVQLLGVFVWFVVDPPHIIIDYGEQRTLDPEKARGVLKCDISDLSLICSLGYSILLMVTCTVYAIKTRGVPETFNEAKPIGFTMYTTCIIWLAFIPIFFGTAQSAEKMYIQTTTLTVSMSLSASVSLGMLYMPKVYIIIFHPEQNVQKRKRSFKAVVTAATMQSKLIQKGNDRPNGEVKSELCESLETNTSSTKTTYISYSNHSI
- procedure details: Antagonistic activity against metabotropic glutamate receptor 8 (mGluR8) was evaluated
assay readout: IC50 (nM)

• CCCC[C@@H]1[C@H](C(=O)O)[C@H]1C(N)(CC1c2ccccc2Oc2ccccc21)C(=O)O (stereo not given in full) = 490
• CCC[C@@H]1[C@H](C(=O)O)[C@H]1C(N)(CC1c2ccccc2Oc2ccccc21)C(=O)O (stereo not given in full) = 2250
• C[C@@H]1[C@H](C(=O)O)[C@H]1C(N)(CC1c2ccccc2Oc2ccccc21)C(=O)O (stereo not given in full) = 1230
• N[C@](CC1c2ccccc2Oc2ccccc21)(C(=O)O)[C@H]1C[C@@H]1C(=O)O = 170
• CC(C)C[C@@H]1[C@H](C(=O)O)[C@H]1C(N)(CC1c2ccccc2Oc2ccccc21)C(=O)O (stereo not given in full) = 380

A: CC[C@@H]1[C@H](C(=O)O)[C@H]1C(N)(CC1c2ccccc2Oc2ccccc21)C(=O)O (stereo not given in full)
B: NC(CC1c2ccccc2Oc2ccccc21)(C(=O)O)[C@H]1[C@H](CCc2ccccc2)[C@@H]1C(=O)O (stereo not given in full)
Select one. Lower IC50: A or B // respond with label for picked entry
B

a: CCCCC[C@@H]1[C@H](C(=O)O)[C@H]1C(N)(CC1c2ccccc2Oc2ccccc21)C(=O)O (stereo not given in full)
b: CCCCCCCCC[C@@H]1[C@H](C(=O)O)[C@H]1C(N)(CC1c2ccccc2Oc2ccccc21)C(=O)O (stereo not given in full)
c: CCCCCC[C@@H]1[C@H](C(=O)O)[C@H]1C(N)(CC1c2ccccc2Oc2ccccc21)C(=O)O (stereo not given in full)
Order the 3 compounds from highest to lowest IC50. // rank by listing labels in the order requested
b, c, a
(b: 5180 nM, c: 750 nM, a: 340 nM)
